# System: Escherichia coli
# Procedure Details: Antimicrobial activity against Escherichia coli DH5alpha harboring beta-lactamase VIM-2 by agar dilution method
# Assay type: functional
# Protocol Conditions: DH5[alpha]
In plain terms, low MIC, meaning strictly below 0.2 µg/mL, gives T, and everything else gives F.

                         compound_structure  assigned_class
0  C[C@H]1[C@H](NC(=O)/C(=N\OC(C)(C)C(=O)O)c2csc(N)n2)C(=O)N1S(=O)(=O)O               T
1  C[C@@H](O)[C@H]1C(=O)N2C(C(=O)O)=C(S[C@@H]3CN[C@H](C(=O)N(C)C)C3)[C@H](C)[C@H]12               T
2  CC(C)(O/N=C(\C(=O)N[C@@H]1C(=O)N2C(C(=O)[O-])=C(C[n+]3ccccc3)CS[C@H]12)c1csc(N)n1)C(=O)O               F
3  CO/N=C(\C(=O)N[C@@H]1C(=O)N2C(C(=O)O)=C(COC(C)=O)CS[C@H]12)c1csc(N)n1               F

Data request: # TODO verify MIC < 0.2 µg/mL strictly for this molecule: "CO/N=C(\C(=O)N[C@@H]1C(=O)N2C(C(=O)[O-])=C(C[N+]3(C)CCCC3)CS[C@H]12)c1csc(N)n1"
Data returned: T

Data request: Same again, this time with "NC[C@H]1O[C@H](O[C@H]2[C@H](O)[C@@H](O[C@H]3O[C@H](CO)[C@@H](O)[C@H](N)[C@H]3O)[C@H](N)C[C@@H]2N)[C@H](N)C[C@@H]1O"
Data returned: F

Data request: Same again, this time with "CC1(C)S[C@@H]2[C@H](NC(=O)[C@H](N)c3ccc(O)cc3)C(=O)N2[C@H]1C(=O)O"
Data returned: F

* * *

# Test system: Pseudomonas aeruginosa
# Procedure Details: microbe, parasite or virus in culture
# Protocol Conditions: Pseudomonas aeruginosa, 9551, Urine
# Description: Antimicrobial activity against Pseudomonas aeruginosa 9551 expressing beta-lactamase VIM-15 obtained from urine of patient by agar dilution method
Property Label: MIC (µg/mL)
Answers are plain numbers, in µg/mL.

Record MIC for all entries; do not skip any.
1. C[C@@H](O)[C@H]1C(=O)N2C(C(=O)O)=C(S[C@@H]3CN[C@H](C(=O)N(C)C)C3)[C@H](C)[C@H]12
2. C[C@H]1[C@H](NC(=O)/C(=N\OC(C)(C)C(=O)O)c2csc(N)n2)C(=O)N1S(=O)(=O)O
3. NC[C@H]1O[C@H](O[C@H]2[C@H](O)[C@@H](O[C@H]3O[C@H](CO)[C@@H](O)[C@H](N)[C@H]3O)[C@H](N)C[C@@H]2N)[C@H](N)C[C@@H]1O

Data returned:
[128, 16, 8]

Data request: Find the measured MIC: item "CO/N=C(\C(=O)N[C@@H]1C(=O)N2C(C(=O)[O-])=C(C[N+]3(C)CCCC3)CS[C@H]12)c1csc(N)n1" , target or system Pseudomonas aeruginosa.
Data returned: 32

* * *

# Tested on: Pseudomonas aeruginosa
# Procedure Details: microbe, parasite or virus in culture
# Protocol Conditions: Pseudomonas aeruginosa, 9551, Urine
What MIC was measured for each of the following?
Give bare numbers, in µg/mL.

                         compound_structure             test_system  experimental_result
0  CC(C)(O/N=C(\C(=O)N[C@@H]1C(=O)N2C(C(=O)[O-])=C(C[n+]3ccccc3)CS[C@H]12)c1csc(N)n1)C(=O)O  Pseudomonas aeruginosa                   64

Could you now look at the following compound, please?
Data request: Could you tell me which MIC is on file for "CC1(C)S[C@@H]2[C@H](NC(=O)[C@H](N)c3ccc(O)cc3)C(=O)N2[C@H]1C(=O)O" ?
Data returned: 512
